meta.source: patent US20250026849A1

- targetSystem: T1, CD123 (Homo sapiens (Human), UniProt P26951 19-305, limits assumed)
- T1 construct: The CD123 construct used in the ELISA is not described; also called CD123-Signal
- T1 sequence: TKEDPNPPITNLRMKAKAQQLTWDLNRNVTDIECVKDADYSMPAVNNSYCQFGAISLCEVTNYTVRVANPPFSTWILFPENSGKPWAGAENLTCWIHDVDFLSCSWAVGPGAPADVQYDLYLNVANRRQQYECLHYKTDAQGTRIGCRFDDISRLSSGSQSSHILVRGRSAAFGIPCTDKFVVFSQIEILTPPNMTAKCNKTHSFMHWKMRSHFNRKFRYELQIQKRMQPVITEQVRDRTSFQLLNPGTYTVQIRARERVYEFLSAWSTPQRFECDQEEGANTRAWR
- assayOverview: ELISA
- Design: unit not given here
reportedProperty: ELISA_avg

In [3]: df
Out[3]:
                                      binder  quantitativereadout
 0  D domain of SEQ ID NO: 455 (designed binder) MGSWTEFAWRLDAIYDRLLALGGSEAELAAFEKEIAAFESELQAYKGKGNPEVEWLRHVAANIRRELQAYRHN                 16.1
 1  D domain of SEQ ID NO: 350 (designed binder) MGSWAEFEDRLWAIEDRLWALGGSEAELAAFEKEIAAFESELQAYKGKGNPEVEYLREEAAAIRFELQAYRHN                  6.2
 2  D domain of SEQ ID NO: 592 (designed binder) MGSWTEFTQRLEAIVDRLFALGGSEAELAEFENSIADFEWDLQWYKGKGNPEVEALNREAVAIDNELWAYRHN                  3.9
 3  D domain of SEQ ID NO: 444 (designed binder) MGSWNEFVIRLDAIYERLLALGGSEAELAAFEKEIAAFESELQAYKGKGNPEVEYLRMAAANIRMELQAYRHN                 16.6
 4  D domain of SEQ ID NO: 419 (designed binder) MGSWMEFWERLEAIDMRLWALGGSEAELAAFEKEIAAFESELQAYKGKGNPEVEYLRDDAAVIRDDLQAYRHN                  4.2
 5  D domain of SEQ ID NO: 577 (designed binder) MGSWEEFDKRLDAITRRLMALGGSEAELAEFESTIAWFEWDLQEYKGKGNPEVEALDWEAYAIDYELGAYRHN                  4.5
 6  D domain of SEQ ID NO: 596 (designed binder) MGSWEEFHWRLGAIDARLEALGGSEAELAWFEDGIADFEAILQDYKGKGNPEVEALDSEAVAIHHELWAYRHN                  3.3
 7  D domain of SEQ ID NO: 396 (designed binder) MGSWVEFDMRLSAIWERLIALGGSEAELAAFEKEIAAFESELQAYKGKGNPEVEWLREDAAEIREFLQAYRHN                  3.3
 8  D domain of SEQ ID NO: 405 (designed binder) MGSWDEFVDRLWAIEERLWALGGSEAELAAFEKEIAAFESELQAYKGKGNPEVEELRIQAAIIREALQAYRHN                    6
 9  D domain of SEQ ID NO: 399 (designed binder) MGSWVEFWDRLDAIEGRLWALGGSEAELAAFEKEIAAFESELQAYKGKGNPEVEDLRWLAAEIRADLQAYRHN                  3.5
10  D domain of SEQ ID NO: 610 (designed binder) MGSWFEFTIRLEAIQDRLDALGGSEAELAWFEWDIAEFEEGLQFYKGKGNPEVEALHTEADAIMNELVAYRHN                  3.5
11  D domain of SEQ ID NO: 554 (designed binder) MGSWNDFKEELAWIKFDLEALGGSEAELAWFEEDIAMFEQQLQAYKGKGNPEVEALRKEAAAIRDELQAYRHN                  3.8
12  D domain of SEQ ID NO: 524 (designed binder) MGSWYIFKEDLAEIKEELEALGGSEAELAYFEEEIALFEMELQWYKGKGNPEVEALRKEAAAIRDELQAYRHN                 11.1
13  D domain of SEQ ID NO: 632 (designed binder) MGSWYEFQERLDAIDSRLWALGGSEAELAWFEYTIAEFEKELQMYKGKGNPEVEALGTEAVAISEELMAYRHN                  5.5
14  D domain of SEQ ID NO: 421 (designed binder) MGSWTEFYNRLDAIDQRLWALGGSEAELAAFEKEIAAFESELQAYKGKGNPEVEMLREYAADIRTDLQAYRHN                  3.3
15  D domain of SEQ ID NO: 574 (designed binder) MGSWFEFDERLDAIGSRLTALGGSEAELASFEFYIADFEEWLQQYKGKGNPEVEALEWEAFAIDEELGAYRHN                  3.8
16  D domain of SEQ ID NO: 466 (designed binder) MGSWNEFEDRLDAIWWRLFALGGSEAELAAFEKEIAAFESELQAYKGKGNPEVEALRVEAAFIRTMLQAYRHN                  5.1
17  D domain of SEQ ID NO: 558 (designed binder) MGSWYQFKDDLAHIKHLLEALGGSEAELAVFEYIIADFESFLQIYKGKGNPEVEALRKEAAAIRDELQAYRHN                    4
18  D domain of SEQ ID NO: 363 (designed binder) MGSWIEFYDRLEAIYDRLDALGGSEAELAAFEKEIAAFESELQAYKGKGNPEVEWLREDAAFIRSWLQAYRHN                  7.5
